# system-name: T1, rHuman Erythropoietin R/Fc Chimera (human, UniProt P19235 25-250)
# T1 construct: also called EPO R; EPO R/Fc
# T1 sequence (looked up): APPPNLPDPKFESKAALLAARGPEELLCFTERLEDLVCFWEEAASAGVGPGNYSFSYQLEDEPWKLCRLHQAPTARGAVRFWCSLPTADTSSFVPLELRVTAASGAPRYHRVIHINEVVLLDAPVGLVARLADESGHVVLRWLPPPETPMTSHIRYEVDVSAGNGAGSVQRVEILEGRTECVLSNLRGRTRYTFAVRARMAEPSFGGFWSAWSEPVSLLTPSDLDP
# procedure-summary: ECL multispot (MSD) binding assay; antigen spotted on plate, Fab in solution;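 further: purified Fab bound for 1 h at 20 °C, detected with a TAG-labelled antibody, electrochemiluminescence compared with each well's blank, signal-to-blank ratio of at least 4 scored as hit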
measured-endpoint: ECL signal
Answers are plain numbers.

Report ECL signal for Fab VH1-46_IGHD6-6*01_IGHJ1*01 S102A/S103P/S104F/H111F (APFF) & L6_IGKJ1*01 S92M (Fab, V domains shown, Tested as Fab (CH1 with His6/Flag tags from Plasmid A; kappa CL from Plasmid C); also called APFF / S92M) VH: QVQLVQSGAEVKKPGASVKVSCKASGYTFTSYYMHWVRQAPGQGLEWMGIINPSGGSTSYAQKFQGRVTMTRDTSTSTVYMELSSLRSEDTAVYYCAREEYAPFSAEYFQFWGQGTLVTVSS VL: EIVLTQSPATLSLSPGERATLSCRASQSVSSYLAWYQQKPGQAPRLLIYDASNRATGIPARFSGSGSGTDFTLTISSLEPEDFAVYYCQQRMNWPPWTFGQGTKVEIKR please.
340
